test system: A549/ATCC NSCLC; assay: NCI-60 one-dose screen, 48 h (100 = growth as untreated, 0 = no growth, -100 = all killed); conditions: 10 µM unless noted
Compounds without any hit were thinned out: in the full panel of roughly 83,000, 20% have a hit.
Binary call on growth with cut-off 90%: strictly below means yes, and equality or higher means no.

| compound | test-system | label-value |
| --- | --- | --- |
| NS(=O)(=O)c1ccc(CCN2C(=O)c3cc(Cl)c(Cl)cc3C2=O)cc1 | A549/ATCC NSCLC | no |
| Cc1cc2cc3ccc(N(C)C)cc3nc2cc1N | A549/ATCC NSCLC | yes |
| CCN(CC)CC[n+]1cc2cc(OC)c(OC)cc2c2ccc3cc4c(cc3c21)OCO4 | A549/ATCC NSCLC | yes |

Enquiry: Is growth of Cn1cc(-c2nc(-c3c[nH]c4c(Cl)nccc34)cs2)c2cc(Br)ccc21 strictly below 90%?
Return: yes

Enquiry: How about this compound: COC(=O)C1=C(C(=O)ON)C2C=CC1(C(Cc1ccccc1)Nc1ccccc1)O2 (configuration not stated)
Return: no

Enquiry: How about this compound: COc1cccc(C(=O)NNc2nc(Cl)nc(N3CCN(C(c4ccccc4)c4ccccc4)CC3)n2)c1
Return: no

Enquiry: How about this compound: COc1ccc(N2CCN(c3ccc(NC4=C(Cl)C(=O)c5ncccc5C4=O)cc3)CC2)cc1
Return: yes

Enquiry: How about this compound: CCCCCC(=O)Oc1ccc(/C(=C(\C)c2ccccc2)c2ccc(OCCN3CCCCC3)cc2)cc1
Return: yes

Enquiry: How about this compound: COc1cc(/C=N/NC(=O)c2cnn3c2NC(c2ccccc2)C3)ccc1Oc1ccccc1 (configuration not stated)
Return: yes

----------
test system: U251 CNS; experiment: NCI-60 one-dose screen, 48 h; details: 10 µM unless noted
The panel holds about 83,000 compounds, 20% with a hit somewhere; the sample as a whole holds those more often. Activity calls are given as the source filed them. The calls were made as follows: active = growth percent below 10; inactive = the rest.
Hi there, use one of these labels in your reply, thanks! active, inactive

Example cases with answers are listed next.
| molecule | test-system | label-value |
| --- | --- | --- |
| COc1ccc(C/C(C)=C(/c2ccc(OCCCN(C)C)cc2)c2ccc(OC(C)=O)cc2)cc1 | U251 CNS | inactive |
| COc1cccc2c1c1nc3cc(C)c(C)cc3nc1n2CCN(C)C | U251 CNS | inactive |
| CCNC(=O)Oc1ccc(/C(=C(\C)c2ccccc2)c2ccc(OCCN3CCCCC3)cc2)cc1 | U251 CNS | inactive |
| C=C1C(=O)O[C@H]2[C@H]1CC/C(COC(=O)NCC(C)c1ccc(CC(C)C)cc1)=C\CC[C@@]1(C)O[C@@H]21 (stereo partly drawn) | U251 CNS | active |
| Cn1cc(-c2nc(-c3c[nH]c4c(Cl)nccc34)cs2)c2cc(F)ccc21 | U251 CNS | inactive |

Enquiry: What call does the record list for O=[N+]([O-])c1ccc(N=Nc2cc(S(=O)(=O)O)c3cccc(S(=O)(=O)O)c3c2O)cc1 ?
Return: inactive

Enquiry: How about this molecule: COc1ccc(OC)c(-c2cc(-c3ccc(Cl)cc3)c3c(N)c(C(=O)c4ccc(Cl)cc4)sc3n2)c1
Return: inactive

----------
system: COLO 205 colon; assay: NCI-60 one-dose screen, 48 h; details: 10 µM unless noted
About 83,000 compounds went through this panel and 20% of them were active in at least one assay; those are over-represented in the sample as a whole. Activity calls are given as the source filed them. Rule for the calls: active = growth percent below 10; inactive = the rest.
Hi there, use one of these labels in your reply, thanks! active, inactive

Example cases with answers are listed next.
| compound | label-value |
| --- | --- |
| Nc1ccccc1NC(=O)c1ccc(-n2nc(-c3ccccc3)c3ccccc32)cc1 | inactive |
| COc1ccc(/C=C(\C#N)n2nc3cccc(F)c3n2)cc1 | inactive |
| COc1cc(-c2n/c(=C\c3c(O)[nH]c4ccc(Cl)cc34)cc3c2=Nc2ccccc2-3)ccc1F | active |
| CC(=O)c1ccc(NS(=O)(=O)c2cccc(C(=O)Nc3ccc(Br)cc3)c2)cc1 | inactive |
| CCCCCN1C=C/C(=C\C(=O)N(C)c2ccc(OC(F)(F)F)cc2)c2ccccc21 | inactive |

Enquiry: What call does the record list for O=C(c1nc2ccccc2[nH]1)C1C(c2ccc(Br)cc2)C2CC3CCCC[C@H]3N2[C@@]12C(=O)Nc1cc(Cl)ccc12 (some centres not stated) ?
Return: inactive

Enquiry: How about this compound: COc1cc2c(=O)n(CCN(C)C)c3c4cc5c(cc4ccc3c2cc1OC)OCO5
Return: active

Enquiry: How about this compound: COc1cc(-c2csc(NC(=O)c3cc(F)cc(C(F)(F)F)c3)n2)cc(OC)c1OC
Return: inactive

----------
Test system: SK-OV-3 ovarian
Assay: NCI-60 one-dose screen, 48 h (100 = growth as untreated, 0 = no growth, -100 = all killed)
Conditions: 10 µM unless noted
Procedure: Growth inhibition of the SK-OV-3 human tumor cell line is measured as a screen for anti-cancer activity. Cells are grown in 96 well plates and exposed to the test compound for 48 hours. Compounds are tested at a single concentration, which is 10^-5 M for most compounds. The reported endpoint is percent growth (GI% or GIPRCNT), where numbers from 0 - 100% represent growth inhibition, and numbers from -100% - 0 represent cell death. For example, a value of 40 represents 60% growth inhibition. […]
About 83,000 compounds went through this panel and 20% of them were active in at least one assay; those are over-represented in the sample as a whole. The source made the active and inactive calls. The calls were made as follows: active = growth percent below 10; inactive = the rest.
Please respond with reported growth for every item in the list.

Worked set:
| smiles-string | growth |
| --- | --- |
| CC(=O)Nc1ccc(-n2cnc3cc(-c4ccc(OCCN5CCCCC5)cc4)ccc32)cc1 | 139% (inactive) |
| Cc1cc2nc3c4cc(C=O)ccc4n(CCN(C)C)c3nc2cc1C | 26.8% (inactive) |
| CC(C)(C)c1cc(C=O)cc(C(C)(C)C)c1O | 110% (inactive) |

Enquiry: Which growth value is on record for COc1cc2oc(-c3cccc(C(=O)Nc4ccc5c(c4)OCO5)c3)cc(=O)c2c(O)c1OC ?
Return: 91.4% (inactive)

----------
system: HT29 colon; test: NCI-60 one-dose screen, 48 h (100 = growth as untreated, 0 = no growth, -100 = all killed); settings: 10 µM unless noted
About 83,000 compounds went through this panel and 20% of them were active in at least one assay; those are over-represented in the sample as a whole.
observed-property: growth (%)
Give bare numbers, in %.

Worked set:
| smiles-string | experimental-value |
| --- | --- |
| COc1cc2c(c(O)c1Br)C(=O)c1c(O)cc(C[C@H](C)O)cc1[C@H]2[C@H]1c2cc(C[C@H](C)O)cc(O)c2C(=O)c2c1cc(OC)c(Br)c2O | 11 |
| O=C(CSc1nc2ccccc2[nH]1)NCc1ccccc1 | 99.4 |
| CCOC(=O)c1cc(C#N)n2ccc3ccccc3c12 | 101 |
| NS(=O)(=O)c1ccc(CCN2C(=O)C=CC2=O)cc1 | 97.2 |

// moving on: another record for growth
Enquiry: Which growth value is on record for CCOC(=O)c1cc(C(=O)c2ccc(OC)c(OC)c2)n2ccc(/C=C/c3cc[n+](CC(=O)c4ccc(OC)c(OC)c4)cc3)cc12 ?
Return: 95.5

----------
Please respond with reported growth for every item in the list.
system: NCI-H322M lung; assay: NCI-60 one-dose screen, 48 h (100 = growth as untreated, 0 = no growth, -100 = all killed); settings: 10 µM unless noted
This is part of a sample that, as a whole, favours compounds with a hit. Of some 83,000 tested, about 20% had one in any assay.
One number for each entry, in %.

| molecule | unit-of-measure | growth |
| --- | --- | --- |
| C[C@H](c1nc2ccc(N)cc2[nH]1)[C@H]1CC[C@H]2[C@@H]3CCC4=CC(=O)CC[C@]4(C)[C@H]3CC[C@]12C | % | 91.7 |
| O=C1c2cccc3c(-c4ccc5c(c4)ncn5C4CCCCC4)ccc(c23)C(=O)N1c1nc2ccccc2s1 | % | 91.7 |
| N#Cc1c(NCc2ccccc2I)sc2c1CCCCC2 | % | 89.9 |
| COc1cc2nc(-c3ccc(Cl)cc3)cc(OCCCN3CCCCC3)c2cc1OC | % | 63.1 |
| COc1ccc(C(=O)c2cc(C)c(OC)c(C)c2)c(OC)c1NC(C)=O | % | 42.7 |
| Cc1ccc(-n2cc(-c3ccccc3)c3c2N=NN2CCN=C32)cc1 | % | 97.4 |
| COc1ccc(C(=O)c2cc(OC)c(OC)c(OC)c2)cc1O | % | 43.7 |
| CCCCCCNC(=O)Nc1ccc2cc3ccc(NC(=O)NCCCCCC)cc3nc2c1 | % | 22.8 |

Count: 4. Required value per item: growth.
1. CNC(=O)c1cccc(Cn2nc(C)c(NC(=O)c3ccc(COc4ccc(C(F)(F)F)cc4C)cc3)c2C)n1
2. O=C(C[n+]1cccc2ccccc21)c1ccc(O)c(O)c1
3. O=C1Nc2cc(-c3ccc(NC(=O)C4CC4)cc3)ccc2/C1=C/c1ccc[nH]1
4. CC(C)N1C(=O)S/C(=C2/SC(=O)N(C(C)C)C2=O)C1=O

Return:
1: 88.9; 2: 93.5; 3: 86.2; 4: 93.4

Count: 4. Required value per item: growth.
1. COc1cc(NC(C)CCCNC(=O)CCC(=O)NCCCNCCCCCCCCNCCCNC(=O)CCC(=O)NCCCC(C)Nc2cc(OC)cc3cccnc23)c2ncccc2c1 (centres undefined)
2. CCCCCCNC(=O)Oc1ccc(/C(=C(\C)c2ccccc2)c2ccc(OCCCN(C)C)cc2)cc1
3. CN[C@@H](C)C(=O)N[C@H]1CCS[C@H]2CC(C)(C)[C@@H](C(=O)N[C@H]3c4ccccc4C[C@H]3OCC#CC#CCO[C@@H]3Cc4ccccc4[C@@H]3NC(=O)[C@H]3N4C(=O)[C@@H](NC(=O)[C@H](C)NC)CCS[C@H]4CC3(C)C)N2C1=O
4. COc1ccc(N2CCN(c3ccc(NC4=C(Cl)C(=O)c5ncccc5C4=O)cc3)CC2)cc1

Return:
1. 32.9
2. 75.2
3. 92.4
4. 46.9

Count: 7. Required value per item: growth.
1. COC(=O)C(CC=O)C(=O)C(=O)Nc1cccc(C(F)(F)F)c1 (centres undefined)
2. O=[N+]([O-])CC(c1ccccc1)c1c[nH]c2ccccc12 (centres undefined)
3. Cc1ccc(-c2[nH][nH]c(=O)c2-c2nc3ccccc3s2)cc1
4. CCN(CC)CCCC(C)Nc1cc(O)cc2cccnc12 (centres undefined)
5. O=S(=O)(NCCNc1nccc(-c2c(-c3cccc(O)c3)nc3occn23)n1)c1cccc(F)c1
6. CCCCC[n+]1ccc(SCC(=O)N(C)c2ccc(Oc3ccccc3)cc2)c2ccccc21
7. CCN(CC)c1ccc(/C=N/NC(=O)CSc2nc3ccccc3c(=O)n2CCc2ccc(S(N)(=O)=O)cc2)c(O)c1

Return:
[97.3, 97.6, 105, 110, 97.3, 107, 29.4]

Enquiry: Which growth value is on record for COC(=O)C1=C(C(=O)ON)[C@@H]2C=C[C@@]1([C@@H](Cc1ccccc1)Nc1ccccc1)O2 ?
Return: 99.5
